These entries and their values trace back to ChEMBL document CHEMBL1149090.

SYSTEM_NAME: S-methyl-5'-thioadenosine phosphorylase (Homo sapiens)
Sequence (Q13126 whole entry): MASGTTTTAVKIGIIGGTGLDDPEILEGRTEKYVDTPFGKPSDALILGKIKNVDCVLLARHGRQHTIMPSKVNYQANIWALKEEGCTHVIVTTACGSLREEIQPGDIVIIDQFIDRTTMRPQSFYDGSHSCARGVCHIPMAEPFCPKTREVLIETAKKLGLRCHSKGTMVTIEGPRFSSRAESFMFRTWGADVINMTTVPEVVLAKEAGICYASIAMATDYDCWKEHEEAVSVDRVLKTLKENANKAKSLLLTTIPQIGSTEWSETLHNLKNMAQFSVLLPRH
pIC50: −log10 of the molar value.

SMILES_ENTRY | pIC50
CSC[C@H]1N[C@@H](c2c[nH]c3c(N)ncnc23)[C@H](O)[C@@H]1O | 8.92
